TESTED_SYSTEM: SARS-CoV-2 spike on pseudovirus or live virus (USA-WA1/2020, WT) (SARS-CoV-2, UniProt P0DTC2 14-1273)
ASSAY_DETAILS: cell-based or functional assay
Listed here are binders together with their documented PSV neutralization IC50.
METRIC_NAME: PSV neutralization IC50 (µg/mL)

L12.bP12H09 (antibody, V domains shown, human IgG1) VH: QVQLVQSGAEVKKPGASVKVSCKASGYIFSGYYTHWVRQAPGQGLEWMGWISPDSGGTNYAQKFQGRVTMTRDTSITTAYVELSGLRSDDTAVYYCARGPRYSGTYFDYWGQGTLVTVSS VL: QSALTQPASVSGSPGQSITISCTGTSSDVGGYNHVSWYQQHPGKAPKLMIYDVSNRPSGVSNRFSGSKSGNTASLTISGLQAEDEADYYCSSYTSSSAQLFGGGTKLTVL ... 0.106
L12.bP12E05 (antibody, V domains shown, human IgG1) VH: EVQLVQSGAEVKKPGASVKVTCKTSGYIFSGYYMHWVRQVPGQGLEWMGWISPDSGATNYAQKFQGRVTMTRDTSITTSYVELTWLKSDDTAVYYCARGPRYSGTYFDFWGQGTLVTVSS VL: QAVVTQPASVSGSPGQSLTISCTGTSSDIGGFNYVSWYQQHPGKAPKLMIFDVSKRPSGVPNRFSGSKSGNTASLTISGLQAEDEGDYYCSSYTISSAQVFGGGTKLTVL ... 0.255
L12.cP07E10 (antibody, V domains shown, human IgG1) VH: EVQLVESGGGLIQPGGSLRLSCAASGFTVSSNYMSWVRQAPGKGLEWVSVIYSGGSTYYADSVKGRFTISRDNSKNTLYLQMNSLRAEDTAVYYCARDPYGYSSIWDGQGGHWGQGTLVTVSS VL: DVVMTQSPSSLSASVGDRVTITCQASQDISNYLNWYQQKPGKAPKLLIYDASNFATGVPSRFSGTGSGTDFTFTISSLQPEDIATYYCQQYDNLPITFGQGTRLEIK ... 0.1
L12.bP10G07 (antibody, V domains shown, human IgG1) VH: EVQLVQSGAEVKKPGASVKVSCKASGYIYSGYYMHWVRQAPGQGLEWMGWISPDSGGTNYAQRFQGRVTMTRDTSTTTAYMELSRLRSDDTAMYYCARGPRYSGTYFDYWGQGTLVTVSS VL: QTVVTQPASVSGSPGQSITISCTGTSSDVGGYNYVSWYQQHPDKAPKLIIYDVSNRPSGVSNRFSGSKSGNTASLTISGLQAEDEAAYYCSSYTSSSTQVFGGGTKLTVL ... 0.328

All figures here come from patent US20230357364A1.
